Test: Antagonist activity at muscarinic receptor
Format: functional
Property Measured: pKi
Respond numerically, and do not add a unit to the figure.

Compound	Reported Measurement
Fc1ccc(C(O[C@@H]2CC3CC[C@H](C2)N3Cc2ccccc2)c2ccc(F)cc2)cc1 (single isomer, unassigned)	3.01

Prompt: For the compound CN1[C@@H]2C[C@@H](OC(=O)[C@H](CO)c3ccccc3)C[C@H]1[C@@H]1O[C@@H]12 [SCOPOLAMINE] , report pKi.
Response: 8.95

Prompt: For the compound CCCCCCOC(=O)C(C(=O)O[C@@H]1C[C@@H]2[C@H]3O[C@H]3[C@H](C1)[N+]2(C)C)c1ccccc1 (some centres undefined) , report pKi.
Response: 7.33

Prompt: For the compound CCOC(=O)C(C(=O)O[C@@H]1CC2[C@H]3O[C@H]3[C@H](C1)[N+]2(C)C)c1ccccc1 (single isomer, unassigned) , report pKi.
Response: 8.32

----------
Assay: Antagonist activity at muscarinic receptor
Type: functional
Property Measured: pKi
Respond numerically, and do not add a unit to the figure.

Compound	Reported Measurement
C[N+]1(C)[C@@H]2C[C@@H](OC(=O)C(C(=O)OC3CCCCC3)c3ccccc3)C[C@H]1[C@@H]1O[C@@H]12 (some centres undefined)	8.01
CCOC(=O)C(C(=O)O[C@@H]1C[C@@H]2[C@H]3O[C@H]3[C@H](C1)[N+]2(C)C)(c1ccccc1)C1CCCC1 (some centres undefined)	7.98
CN1[C@@H]2CC[C@H]1C[C@@H](OC(=O)C(CO)c1ccccc1)C2 (some centres undefined)	9.34

# evaluate next
Prompt: For the compound C[N+]1(C)C2CCC1CC(OC(=O)C(CC(=O)O[C@H]1C[C@H]3CC[C@@H](C1)[N+]3(C)C)c1ccccc1)C2 (some centres undefined) , report pKi.
Response: 7.18
